Where these numbers come from: patent US10231954B2

Target System: UniProt:Q9H0K1
Sequence (Q9H0K1 whole entry, species assumed): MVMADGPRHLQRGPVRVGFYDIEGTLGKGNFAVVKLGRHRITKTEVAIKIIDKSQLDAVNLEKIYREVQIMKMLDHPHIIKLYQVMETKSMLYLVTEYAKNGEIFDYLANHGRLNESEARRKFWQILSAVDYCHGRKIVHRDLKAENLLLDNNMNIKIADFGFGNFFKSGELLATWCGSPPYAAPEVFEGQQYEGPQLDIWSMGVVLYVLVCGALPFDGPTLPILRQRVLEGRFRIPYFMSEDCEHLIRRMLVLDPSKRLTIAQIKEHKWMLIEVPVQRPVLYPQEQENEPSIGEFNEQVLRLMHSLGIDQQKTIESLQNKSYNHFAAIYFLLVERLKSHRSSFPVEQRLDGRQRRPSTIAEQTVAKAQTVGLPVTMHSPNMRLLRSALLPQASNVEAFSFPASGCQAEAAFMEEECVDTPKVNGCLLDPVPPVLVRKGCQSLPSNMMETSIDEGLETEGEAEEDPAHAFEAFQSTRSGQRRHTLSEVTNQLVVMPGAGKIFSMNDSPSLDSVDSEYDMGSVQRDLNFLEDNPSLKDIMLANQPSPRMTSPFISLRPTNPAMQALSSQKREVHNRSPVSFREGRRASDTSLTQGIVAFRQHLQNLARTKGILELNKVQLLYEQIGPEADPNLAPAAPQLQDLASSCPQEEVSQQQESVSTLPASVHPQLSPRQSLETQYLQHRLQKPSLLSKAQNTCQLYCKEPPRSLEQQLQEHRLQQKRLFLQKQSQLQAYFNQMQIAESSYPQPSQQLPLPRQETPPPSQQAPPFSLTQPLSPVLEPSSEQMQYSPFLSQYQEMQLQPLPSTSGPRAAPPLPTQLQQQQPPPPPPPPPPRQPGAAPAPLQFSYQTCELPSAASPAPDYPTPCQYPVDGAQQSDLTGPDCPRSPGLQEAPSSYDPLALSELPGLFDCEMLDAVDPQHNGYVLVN
Experiment Summary: Kinase profiling SIK2
Type: biochemical
Conditions: 100 micromolar inhibitor concentration; 100 is no change; read-out: residual kinase activity, SIK2
The threshold is 70%. Values of remaining activity at 100 µM beneath it are tagged true (1); values meeting or exceeding it are tagged false (0).

          structure_smiles_string   category
0        COc1ccc2sc(NC(C)=O)nc2c1  false (0)
1         CC(=O)Nc1nc2ccc(O)cc2s1   true (1)
2  CC(=O)Nc1nc2cc(C(F)(F)F)ccc2s1  false (0)
3         CC(=O)Nc1nc2cc(F)ccc2s1   true (1)

----------
Target System: PKBa (Homo sapiens, UniProt P31749)
Sequence (P31749 whole entry): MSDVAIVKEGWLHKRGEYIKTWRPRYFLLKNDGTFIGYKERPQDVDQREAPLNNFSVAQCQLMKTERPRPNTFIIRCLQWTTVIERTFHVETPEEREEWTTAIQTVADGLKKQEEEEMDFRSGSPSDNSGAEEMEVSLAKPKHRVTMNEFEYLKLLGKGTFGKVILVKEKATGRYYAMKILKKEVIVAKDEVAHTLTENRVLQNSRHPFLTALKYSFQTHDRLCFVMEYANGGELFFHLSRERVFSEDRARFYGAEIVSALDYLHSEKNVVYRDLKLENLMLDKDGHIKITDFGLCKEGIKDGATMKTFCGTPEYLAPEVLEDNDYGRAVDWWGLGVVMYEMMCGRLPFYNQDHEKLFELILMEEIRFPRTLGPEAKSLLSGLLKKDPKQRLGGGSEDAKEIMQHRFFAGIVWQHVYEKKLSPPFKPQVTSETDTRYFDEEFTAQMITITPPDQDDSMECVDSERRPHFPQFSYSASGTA
Experiment Summary: Kinase profiling PKBa
Type: biochemical
Conditions: 100 micromolar inhibitor concentration; 100 is no change
Measure Name: residual kinase activity, PKBa

>>> print(df.to_string())
                                   compound  reading
0  O=C(Nc1nc2cc(O)ccc2s1)c1ccccc1 [Compound 03-102]       88
1  COC(=O)c1cccc(C(=O)Nc2nc3cc(OC)ccc3s2)c1 [Compound 03-108]      106
2  CC(=O)Nc1ccc(C(=O)Nc2nc3ccc(O)cc3s2)cc1 [Compound 03-74]       87
3  COc1ccc2sc(NC(=O)c3ccc(NC(C)=O)cc3)nc2c1 [MS:LY-2-77]       89
4  O=C(Nc1nc2cc(O)ccc2s1)c1ccccn1 [Compound 03-13]      107
5  COc1ccc2sc(NC(=O)c3cccc(NC(C)=O)c3)nc2c1 [MS:LY-2-85]       90
6  O=C(Nc1nc2ccc(O)cc2s1)c1ccccn1 [Compound 03-12]       74
7  CC(=O)Nc1ccc(C(=O)Nc2nc3cc(O)ccc3s2)cc1 [MS:LY-2-87]       86
8  CC(=O)Nc1ccccc1C(=O)Nc1nc2ccc(O)cc2s1 [Compound 08-39]       84
9  O=C(Nc1nc2ccc(C(F)(F)F)cc2s1)c1ccccc1 [Compound 03-99]       91

----------
Target System: BRK (Homo sapiens, UniProt Q13882)
Sequence (Q13882 whole entry, species assumed): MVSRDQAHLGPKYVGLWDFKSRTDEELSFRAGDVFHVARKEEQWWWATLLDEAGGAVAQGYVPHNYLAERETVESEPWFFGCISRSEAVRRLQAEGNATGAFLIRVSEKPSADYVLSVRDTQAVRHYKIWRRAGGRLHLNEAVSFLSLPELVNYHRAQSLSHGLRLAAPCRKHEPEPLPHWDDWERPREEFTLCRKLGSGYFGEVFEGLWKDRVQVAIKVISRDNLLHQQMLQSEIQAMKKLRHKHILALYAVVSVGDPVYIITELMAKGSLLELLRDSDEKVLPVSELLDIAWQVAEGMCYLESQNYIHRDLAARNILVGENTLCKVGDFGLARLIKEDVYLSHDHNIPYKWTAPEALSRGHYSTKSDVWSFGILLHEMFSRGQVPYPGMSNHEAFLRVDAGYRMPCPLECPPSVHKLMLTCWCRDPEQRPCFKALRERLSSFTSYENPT
Experiment Summary: Kinase profiling BRK
Type: biochemical
Conditions: 100 micromolar inhibitor concentration; 100 is no change
Classify by residual kinase activity, BRK. Ranges: range A = under 40, range B = from 40 up to 90, range C = 90 and over

                                   compound  category
0  O=C(Nc1nc2ccc(O)cc2s1)c1ccncc1 [Compound 08-42]   range B
1  O=C(Nc1nc2cc(O)ccc2s1)c1cccnc1 [Compound 03-33]   range B
2  O=C(Nc1nc2cc(O)ccc2s1)c1ccccn1 [Compound 03-13]   range C
3  O=C(Nc1nc2ccc(O)cc2s1)c1ccccc1 [Compound 03-60]   range A
4  O=C(Nc1nc2ccc(O)cc2s1)c1ccccn1 [Compound 03-12]   range B
5  CC(=O)Nc1nc2cc(C)ccc2s1 [Compound 03-76]   range B
6  O=C(Nc1nc2ccc(O)cc2s1)c1cccnc1 [Compound 08-44]   range A
7  O=C(Nc1nc2cc(O)ccc2s1)c1ccncc1 [Compound 03-11]   range C

----------
Target System: EF2K (Homo sapiens, UniProt O00418)
Experiment Summary: Kinase profiling EF2K
Type: biochemical
Conditions: 100 micromolar inhibitor concentration; 100 is no change; read-out: residual kinase activity, EF2K
Measure Name: remaining activity at 100 µM (%)

>>> df
              structure_smiles_string                  measure_name  uom  reading
0           CC(=O)Nc1nc2ccc(C#N)cc2s1  remaining activity at 100 µM    %       98
1             CC(=O)Nc1nc2ccc(O)cc2s1  remaining activity at 100 µM    %       75
2            COc1ccc2sc(NC(C)=O)nc2c1  remaining activity at 100 µM    %      105
3      CC(=O)Nc1nc2ccc(C(F)(F)F)cc2s1  remaining activity at 100 µM    %      103
4  CC(=O)Nc1nc2ccc([N+](=O)[O-])cc2s1  remaining activity at 100 µM    %       95
5             CC(=O)Nc1nc2cc(F)ccc2s1  remaining activity at 100 µM    %       99
6      CC(=O)Nc1nc2cc(C(F)(F)F)ccc2s1  remaining activity at 100 µM    %      109
